- measurementTarget: human FXR (Homo sapiens)
- assayMethodText: FXR-bla reporter gene assay, agonist mode (qHTS)
- conditionParameters: Table S1, primary screening; CDCA 100%
# Lookup of reported FXR agonist mode Efficacy keyed by entry
propertyMeasured: FXR agonist mode Efficacy (%)

{"columns": ["compound", "measurementTarget", "recordedResult"],
 "data": [
  ["C[C@H](CCC(=O)O)[C@H]1CC[C@H]2[C@@H]3CC[C@@H]4C[C@H](O)CC[C@]4(C)[C@H]3C[C@H](O)[C@]12C [DCA, Deoxycholic acid]", "human FXR (Homo sapiens)", 50],
  ["COCCOC(=O)C1=C(C)NC(C)=C(C(=O)OC/C=C/c2ccccc2)C1c1cccc([N+](=O)[O-])c1 (stereo not drawn) [Cilnidipine]", "human FXR (Homo sapiens)", 64],
  ["COC(=O)C1=C(C)NC(C)=C(C(=O)OCCN(C)Cc2ccccc2)C1c1cccc([N+](=O)[O-])c1 (stereo not drawn) [Nicardipine]", "human FXR (Homo sapiens)", 33]
]}

====

- measurementTarget: human FXR (Homo sapiens, UniProt Q96RI1)
- assayMethodText: FXR-bla reporter gene assay, antagonist mode (CDCA-induced transactivation)
- conditionParameters: Table S3; 50 µM CDCA
propertyMeasured: FXR antagonist Efficacy (%)

{"columns": ["molecule", "measurementTarget", "propertyMeasured", "unitsText", "recordedResult"],
 "data": [
  ["CC(=O)[C@]1(O)Cc2c(O)c3c(c(O)c2[C@@H](O[C@H]2C[C@H](N)[C@H](O)[C@H](C)O2)C1)C(=O)c1ccccc1C3=O [Idarubicin]", "human FXR (Homo sapiens, UniProt Q96RI1)", "FXR antagonist Efficacy", "%", 105],
  ["CCc1c(C(=O)NN2CCCCC2)nn(-c2ccc(Cl)cc2Cl)c1-c1ccc(Br)cc1 [Surinabant]", "human FXR (Homo sapiens, UniProt Q96RI1)", "FXR antagonist Efficacy", "%", 96],
  ["COC(=O)C1=C(C)NC(C)=C(C(=O)OC2CCCN(Cc3ccccc3)C2)C1c1cccc([N+](=O)[O-])c1 (centres unmarked) [Benidipine]", "human FXR (Homo sapiens, UniProt Q96RI1)", "FXR antagonist Efficacy", "%", 84],
  ["COC(=O)C1=C(C)NC(C)=C(C(=O)OC(C)(C)CN(C)CCC(c2ccccc2)c2ccccc2)C1c1cccc([N+](=O)[O-])c1 (centres unmarked) [Lercanidipine]", "human FXR (Homo sapiens, UniProt Q96RI1)", "FXR antagonist Efficacy", "%", -71],
  ["COC(=O)C1=C(C)NC(C)=C(C(=O)OCCN(C)Cc2ccccc2)C1c1cccc([N+](=O)[O-])c1 (centres unmarked) [Nicardipine]", "human FXR (Homo sapiens, UniProt Q96RI1)", "FXR antagonist Efficacy", "%", 116],
  ["CC[C@]1(O)C[C@@H]2CN(CCc3c([nH]c4ccccc34)[C@@](C(=O)OC)(c3cc4c(cc3OC)N(C)[C@H]3[C@@](O)(C(=O)OC)[C@H](OC(C)=O)[C@]5(CC)C=CCN6CC[C@]43[C@@H]65)C2)C1 [Vinblastine]", "human FXR (Homo sapiens, UniProt Q96RI1)", "FXR antagonist Efficacy", "%", 59],
  ["COCCOC(=O)C1=C(C)NC(C)=C(C(=O)OC/C=C/c2ccccc2)C1c1cccc([N+](=O)[O-])c1 (centres unmarked) [Cilnidipine]", "human FXR (Homo sapiens, UniProt Q96RI1)", "FXR antagonist Efficacy", "%", 64],
  ["CO[C@@]12[C@H](COC(N)=O)C3=C(C(=O)C(C)=C(N)C3=O)N1C[C@@H]1N[C@@H]12 [Mitomycin C]", "human FXR (Homo sapiens, UniProt Q96RI1)", "FXR antagonist Efficacy", "%", 62],
  ["COC(=O)Nc1nc2ccc(C(=O)c3ccccc3)cc2[nH]1 [Mebendazole]", "human FXR (Homo sapiens, UniProt Q96RI1)", "FXR antagonist Efficacy", "%", 66],
  ["CCOc1ccc2nc3cc(N)ccc3c(N)c2c1 [Ethacridine]", "human FXR (Homo sapiens, UniProt Q96RI1)", "FXR antagonist Efficacy", "%", 75],
  ["OCCN(CCO)c1nc(N2CCCCC2)c2nc(N(CCO)CCO)nc(N3CCCCC3)c2n1 [Dipyridamole]", "human FXR (Homo sapiens, UniProt Q96RI1)", "FXR antagonist Efficacy", "%", 53]
]}

====

- measurementTarget: UniProt:Q96RI1
- assayMethodText: FXR-bla reporter gene assay, antagonist mode (CDCA-induced transactivation)
- conditionParameters: FXR antagonist mode IC50
pIC50: −log10 of the molar value.
# if value of pIC50 reaches 5, tag Condition met; if it stays below, tag Condition not met

{"columns": ["compound", "measurementTarget", "answerLabel"],
 "data": [
  ["CCCCc1ccc2[nH]c(NC(=O)OC)nc2c1", "UniProt:Q96RI1", "Condition met"],
  ["CC(C)[C@H](C(=O)OC(C#N)c1cccc(Oc2ccccc2)c1)c1ccc(OC(F)F)cc1 (stereo partly shown) [Flucythrinate]", "UniProt:Q96RI1", "Condition not met"],
  ["CC1(C)C(/C=C(\\Cl)C(F)(F)F)C1C(=O)OC(C#N)c1cccc(Oc2ccccc2)c1 (stereo not shown)", "UniProt:Q96RI1", "Condition not met"],
  ["O=c1c(-c2ccc(O)cc2)coc2cc(O)cc(O)c12", "UniProt:Q96RI1", "Condition not met"],
  ["CC(C)[C@H](Nc1ccc(C(F)(F)F)cc1Cl)C(=O)OC(C#N)c1cccc(Oc2ccccc2)c1 (stereo partly shown) [Fluvalinate]", "UniProt:Q96RI1", "Condition not met"],
  ["CO[C@H]1C[C@H](O[C@@H]2/C(C)=C/C[C@@H]3C[C@@H](C[C@]4(CC[C@H](C)[C@@H](C5CCCCC5)O4)O3)OC(=O)[C@@H]3C=C(C)/C(=N/O)[C@H]4OC/C(=C\\C=C\\[C@@H]2C)[C@]43O)O[C@@H](C)[C@@H]1O", "UniProt:Q96RI1", "Condition met"],
  ["COc1cccc2c1C(=O)c1c(O)c3c(c(O)c1C2=O)C[C@@](O)(C(=O)CO)C[C@@H]3O[C@H]1C[C@H](N)[C@H](O[C@@H]2CCCCO2)[C@H](C)O1", "UniProt:Q96RI1", "Condition not met"],
  ["CCC[S+]([O-])c1ccc2[nH]c(NC(=O)OC)nc2c1 (stereo not shown) [Albendazole oxide]", "UniProt:Q96RI1", "Condition not met"]
]}

====

- measurementTarget: FXR-LBD (Homo sapiens, UniProt Q96RI1)
- Construct: The glutathione S-transferase (GST)-tagged FXR-LBD protein; purchased Life Technologies
- assayMethodText: FXR TR-FRET coactivator recruitment assay, antagonist mode (50 μM CDCA)
- Type: biochemical
- conditionParameters: Table 1; in the presence of 50 μM CDCA

{"columns": ["smilesCode", "FXR TR-FRET, antagonist IC50"],
 "data": [
  ["COC(=O)Nc1nc2ccc(C(=O)c3ccccc3)cc2[nH]1", "Inactive"],
  ["OCCN(CCO)c1nc(N2CCCCC2)c2nc(N(CCO)CCO)nc(N3CCCCC3)c2n1", "Inactive"],
  ["CC1=C2C[C@H]3[C@@H](CC=C4C[C@@H](O)CC[C@@]43C)[C@@H]2CC[C@]12O[C@@H]1C[C@H](C)CN[C@H]1[C@H]2C", "Inactive"],
  ["Cn1cc(C2=C(c3cn(C4CCN(Cc5ccccn5)CC4)c4ccccc34)C(=O)NC2=O)c2ccccc21", "Inactive"],
  ["Nc1c2ccccc2nc2ccccc12", "Inactive"],
  ["CC[C@]1(O)C[C@@H]2CN(CCc3c([nH]c4ccccc34)[C@@](C(=O)OC)(c3cc4c(cc3OC)N(C)[C@H]3[C@@](O)(C(=O)OC)[C@H](OC(C)=O)[C@]5(CC)C=CCN6CC[C@]43[C@@H]65)C2)C1", "Inactive"]
]}

====

- measurementTarget: FXR-LBD (Homo sapiens)
- Construct: The glutathione S-transferase (GST)-tagged FXR-LBD protein; purchased Life Technologies
- Sequence (Q96RI1 262-486 limits assumed): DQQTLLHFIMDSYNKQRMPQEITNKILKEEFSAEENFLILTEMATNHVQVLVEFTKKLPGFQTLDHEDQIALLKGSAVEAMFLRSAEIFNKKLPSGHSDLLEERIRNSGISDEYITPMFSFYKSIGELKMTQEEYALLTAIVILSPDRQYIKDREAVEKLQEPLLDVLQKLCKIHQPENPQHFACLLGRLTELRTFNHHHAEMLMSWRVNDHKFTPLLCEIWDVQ
- assayMethodText: FXR TR-FRET coactivator recruitment assay, agonist mode
- Assay type: biochemical
- conditionParameters: Table 1; coactivator SRC2-2 recruitment

{"columns": ["smilesCode", "measurementTarget", "FXR TR-FRET, agonist EC50"],
 "data": [
  ["CCc1c(C(=O)NN2CCCCC2)nn(-c2ccc(Cl)cc2Cl)c1-c1ccc(Br)cc1", "FXR-LBD (Homo sapiens)", "Inactive"],
  ["COC(=O)Nc1nc2ccc(C(=O)c3cccs3)cc2[nH]1", "FXR-LBD (Homo sapiens)", "Inactive"],
  ["O=C1c2ccccc2C(=O)C1C(=O)C(c1ccccc1)c1ccccc1", "FXR-LBD (Homo sapiens)", "Inactive"],
  ["COC(=O)Nc1nc2ccc(C(=O)c3ccccc3)cc2[nH]1", "FXR-LBD (Homo sapiens)", "Inactive"],
  ["COc1cc2c(c(OC)c1OC)-c1ccc(OC)c(=O)cc1[C@@H](NC(C)=O)CC2", "FXR-LBD (Homo sapiens)", "Inactive"],
  ["CC(=O)[C@]1(O)Cc2c(O)c3c(c(O)c2[C@@H](O[C@H]2C[C@H](N)[C@H](O)[C@H](C)O2)C1)C(=O)c1ccccc1C3=O", "FXR-LBD (Homo sapiens)", "Inactive"]
]}
